For reference, the following pIC50 results for UniProtKB P24941 were taken from various sources.
pIC50: −log10 of the molar value.

Hey, UniProtKB P24941 data for COc1ccc(C(=O)Nc2ccc(NC(=O)c3ccccn3)cc2)cc1-c1c[nH]c(=O)[nH]c1=O : pIC50 came out at < 4.52

Hey, UniProtKB P24941 data for O=C(NC(c1cnc(Cl)c(Cl)c1)C1CCNCC1)c1ccc2cnccc2c1 (racemic) : pIC50 came out at < 4.60

Hey, UniProtKB P24941 data for Cc1cc(-c2cnc(Nc3ccccn3)s2)nc(OC2CCCCC2)n1 : pIC50 came out at < 5.00
